Experiment: xn = mol fraction of the nth substance listed
Details: 298.15 K; 101.3 kPa; Liquid; Vibrating tube method; x2 = 0.9

compound: O=C1CCCCC1 [cyclohexanone] + CCCCCCO
mass density, kg/m3: 825.91

compound: O=C1CCCCC1 [cyclohexanone] + CCO
mass density, kg/m3: 814.29

compound: O=C1CCCCC1 [cyclohexanone] + CCCCCCCCO
mass density, kg/m3: 829.11

compound: O=C1CCCCC1 [cyclohexanone] + CCCCO
mass density, kg/m3: 822.78

compound: O=C1CCCCC1 [cyclohexanone] + CCCCCCCCCCO
mass density, kg/m3: 830.72
